# TGI values compiled below
Test system: DLD-1 colon
test.name: NCI tumour cell line growth inhibition, 48 h

Past entries and their recorded results:
compound	value
Cc1cccc(NC(=O)CC2C(=O)Nc3ccccc3S2(=O)=O)c1C (configuration not stated)	> 100 µM
CC(=O)Nc1ccc(/C=c2\sc3nnc(/C=C/c4ccccc4)n3c2=O)cc1	> 50 µM
Fc1cccc(F)c1C1SCc2nc3ccccc3n21 (configuration not stated)	> 100 µM
N/C(=N\C(=S)N1CCCCC1)N1CCCCC1	> 100 µM
COC(=O)C(C(=O)C(=O)Nc1ccccc1OC)c1csc(-n2nc(-c3ccccc3)cc2-c2ccccc2)n1 (configuration not stated)	> 100 µM

INPUT: Quick check: TGI on DLD-1 colon, item COC1OC(C)C(OC(=O)C(C)(C)C)C(C)(O)C1O (configuration not stated) ?
OUTPUT: > 100 µM

INPUT: Quick check: TGI on DLD-1 colon, item CN(C)CC1(C)CC/C(=C\c2ccc3c(c2)OCO3)C1=O (configuration not stated) ?
OUTPUT: > 100 µM
